From: paper PMC12250347

Read-out record for human liver cathepsin L (Homo sapiens, UniProt P07711): IC50
value.type: IC50 (nM)

[P] CCc1ccccc1NC(=O)CSC(=O)NNC(=O)[C@H](Cc1c[nH]c2ccccc12)NC(=O)OC(C)(C)C [SID26681509]
[Q] CC(C)(F)C[C@H](N[C@@H](c1ccc(-c2ccc(S(C)(=O)=O)cc2)cc1)C(F)(F)F)C(=O)NC1(C#N)CC1 [Odanacatib]
I'd appreciate it if you could identify which of P and Q has the greater IC50. Respond using the label that marks the chosen record.
Q

###

Target: human recombinant cathepsin K (Homo sapiens)
Construct: purchased MilliporeSigma
Sequence (P43235 115-329): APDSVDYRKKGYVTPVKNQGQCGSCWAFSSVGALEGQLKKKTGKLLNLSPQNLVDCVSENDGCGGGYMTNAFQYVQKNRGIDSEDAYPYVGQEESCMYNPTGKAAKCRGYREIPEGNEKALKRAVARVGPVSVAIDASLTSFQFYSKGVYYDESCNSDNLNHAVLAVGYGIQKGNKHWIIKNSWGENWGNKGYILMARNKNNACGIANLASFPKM
Test: In vitro cathepsin inhibitory assay (Z-Phe-Arg-AMC fluorescence)
Type: biochemical
Conditions: 20 ng/mL cathepsin K, 20 µM Z-Phe-Arg-AMC, 15 min, 37°C, pH 5.5; mean of two experiments
value.type: IC50 (nM)

[P] CCc1ccccc1NC(=O)CSC(=O)NNC(=O)[C@H](Cc1c[nH]c2ccccc12)NC(=O)OC(C)(C)C [SID26681509]
[Q] CC(C)(F)C[C@H](N[C@@H](c1ccc(-c2ccc(S(C)(=O)=O)cc2)cc1)C(F)(F)F)C(=O)NC1(C#N)CC1 [Odanacatib]
I'm curious whether P or Q has the smaller IC50 number. Which is it? Respond using the label that marks the chosen record.
Q
(Q: 0.28 nM, P: 1520 nM)

###

Biological target: human erythrocyte calpain 1 (Homo sapiens, UniProt P07384)
Sequence (P07384 1-714): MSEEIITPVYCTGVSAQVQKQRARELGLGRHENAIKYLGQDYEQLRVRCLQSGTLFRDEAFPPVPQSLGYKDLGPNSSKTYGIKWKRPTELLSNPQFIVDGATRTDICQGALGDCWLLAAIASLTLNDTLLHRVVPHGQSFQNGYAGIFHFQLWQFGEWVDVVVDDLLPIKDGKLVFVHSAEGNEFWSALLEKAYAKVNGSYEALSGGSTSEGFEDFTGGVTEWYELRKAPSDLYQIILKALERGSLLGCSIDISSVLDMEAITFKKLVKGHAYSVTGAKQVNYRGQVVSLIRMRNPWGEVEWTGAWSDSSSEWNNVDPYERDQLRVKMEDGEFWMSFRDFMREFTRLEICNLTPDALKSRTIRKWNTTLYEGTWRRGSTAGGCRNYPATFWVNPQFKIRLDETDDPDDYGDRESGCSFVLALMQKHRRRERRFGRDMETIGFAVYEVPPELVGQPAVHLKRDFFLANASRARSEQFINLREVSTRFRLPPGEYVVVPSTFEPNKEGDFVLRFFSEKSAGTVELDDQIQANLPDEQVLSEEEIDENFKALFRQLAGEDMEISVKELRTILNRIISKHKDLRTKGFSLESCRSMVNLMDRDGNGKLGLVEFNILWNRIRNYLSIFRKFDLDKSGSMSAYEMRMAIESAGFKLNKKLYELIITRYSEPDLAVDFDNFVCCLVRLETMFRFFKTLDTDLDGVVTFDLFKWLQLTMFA
Sequence (P04632 1-268 partner): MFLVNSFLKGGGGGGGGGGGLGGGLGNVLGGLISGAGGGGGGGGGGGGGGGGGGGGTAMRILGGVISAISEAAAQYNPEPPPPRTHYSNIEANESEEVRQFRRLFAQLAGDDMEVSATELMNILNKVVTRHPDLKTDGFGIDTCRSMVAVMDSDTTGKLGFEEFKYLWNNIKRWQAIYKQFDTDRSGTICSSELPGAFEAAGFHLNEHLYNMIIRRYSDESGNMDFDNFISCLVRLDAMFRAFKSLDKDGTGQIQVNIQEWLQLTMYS
value.type: IC50 (nM)

compound: O=C(O)/C(S)=C/c1c[nH]c2ccc(F)cc12
IC50 (nM): 150

compound: COCCOCCOC(=O)N[C@@H](CC(C)C)C(=O)N[C@@H](Cc1ccccc1)C(=O)C(=O)NC1CC1
IC50 (nM): 77

compound: O=C(NC1CC1)C(=O)C(Cc1ccccc1)NC(=O)[C@H]1CCC(=O)N1Cc1ccccc1 (some centres unmarked)
IC50 (nM): 403

[P] CC(C)(F)C[C@H](N[C@@H](c1ccc(-c2ccc(S(C)(=O)=O)cc2)cc1)C(F)(F)F)C(=O)NC1(C#N)CC1
[Q] CCc1ccccc1NC(=O)CSC(=O)NNC(=O)[C@H](Cc1c[nH]c2ccccc12)NC(=O)OC(C)(C)C
I'd appreciate it if you could identify which of P and Q has the greater IC50. Respond using the label that marks the chosen record.
Q
